Source: patent US20060069132A1

Parameter Foxtail, Giant plant response rating: see the listing below.
system: giant foxtail; test: Test B pre-/postemergence herbicide test; assay type: in vivo, Setaria faberi; details: postemergence, 500 g ai/ha; scale 0 to 100, 0 is no effect, 100 is complete control
ASSAY METRIC: Foxtail, Giant plant response rating

1) C#CCNC(=O)c1ccc(F)c(NC(=O)c2cc(C(C)(C)C)nn2CC)n1 [Compound 279]: 0
2) C#CCNC(=O)c1cncc(NC(=O)c2cc(C(C)(C)C)nn2CC)n1 [Compound 289]: 60
3) CCNC(=O)c1cccc(NC(=O)c2nn(C3CCCC3)nc2CC)c1 [Compound 356]: 30
4) Cc1nn(C(C)(C)C)nc1C(=O)Nc1cc(C(=O)N(C)C)ccc1F [Compound 378]: 30
5) CCn1nc(C(C)(C)C)cc1C(=O)Nc1ccnc(C(=O)N(C)C)c1 [Compound 256]: 50
6) CCNC(=O)c1ccc(F)c(NC(=O)c2cc(C(C)(C)C)nn2CC)n1 [Compound 278]: 10
7) CCN(C)C(=O)c1ccc(F)c(NC(=O)c2cc(C(C)(C)C)nn2CC)n1 [Compound 280]: 0
8) CCn1nc(C(C)(C)C)cc1C(=O)Nc1ccc(OC)c(OC)c1 [Compound 298]: 50

----------
tested on: blackgrass; test: Test B postemergence herbicide test; type: in vivo, Alopecurus myosuroides; conditions: postemergence, 500 g ai/ha; scale 0 to 100, 0 is no effect, 100 is complete control
Blackgrass plant response rating strictly under 30 means T; at 30 or over means F.

1. C#CCNC(=O)c1ccc(F)c(NC(=O)c2nn(C(C)(C)C)nc2CC)c1 [Compound 389]: T
2. CCN(C)C(=O)c1ccc(F)c(NC(=O)c2cc(C(C)(C)C)nn2CC)n1 [Compound 280]: T
3. CCn1nc(C2(C)CC2)cc1C(=O)Nc1cc(C(=O)N2CC=CC2)ccc1F [Compound 301]: F
4. CCc1nn(C(C)(C)C)nc1C(=O)Nc1cc(C(=O)N2CC=CC2)ccc1F [Compound 363]: F
5. C#CCNC(=O)c1cncc(NC(=O)c2cc(C(C)(C)C)nn2CC)n1 [Compound 289]: T

----------
tested on: cocklebur; experiment: Test B pre-/postemergence herbicide test; assay type: in vivo, Xanthium strumarium; details: 500 g ai/ha; visual rating, 0 = no effect, 100 = complete control; preemergence
ASSAY METRIC: Plant response rating, Cocklebur

1) CCn1nc(C(C)(C)C)cc1C(=O)Nc1ccnc(C(=O)N(C)C)c1: 0
2) CCNC(=O)c1ccc(F)c(NC(=O)C2CC(C(C)(C)C)=NN2CC)c1 (racemic): 70
3) Cn1nc(C(C)(C)C)cc1C(=O)Nc1cccc(C(=O)NC2CC2)n1: 0

----------
tested on: redroot pigweed; assay: Test A pre-/postemergence herbicide test; assay type: in vivo, Amaranthus retroflexus; settings: Postemergence, 2000 g ai/ha; 0 to 100 scale, 0 no effect, 100 complete control
ASSAY METRIC: Plant response rating, Pigweed

1. CCN(CC)C(=O)c1ccnc(NC(=O)c2cc(C(C)(C)C)nn2CC)c1 [Compound 153]: 100
2. C#CCNC(=O)c1cccc(NC(=O)c2cc(C(C)(C)C)nn2CC)n1 [Compound 147]: 100
3. Cn1nc(C(C)(C)C)cc1C(=O)Nc1cccc(C(=O)NC2CC2)n1 [Compound 315]: 20
4. CCc1nc(C(C)(C)C)sc1C(=O)Nc1cccc(C(=O)NCCF)c1 [Compound 209]: 50
5. CCc1nc(C(C)(C)C)sc1C(=O)Nc1cccc(C(=O)N(CC)CC)c1 [Compound 205]: 65
